assayNotes: chemical genetic growth profiling, strain panel (AID 1159580);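 further: tested at 20 µM; growth read once vehicle control cultures reached saturation at 30 °C; 1 = growth at the plate median or of vehicle wells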
conditionDescription: S. cerevisiae deletion strains, growth OD, locus YDR335W, strain msn5
Out of some 5,500 compounds screened, about 2,000 (36%) were called active. Another 18% or so got no clear call; they are omitted. No stated cut-off is given here; in the data, active means normalized growth mostly below about 0.91 (no sharp cut-off); inconclusive means no clear call, values can overlap the other calls; inactive means mostly above about 0.92. The list shows a part of the results.
The reply should name one outcome from label 1 for active, label 0 for inactive

| molecule | classLabel |
| --- | --- |
| CC(C)(Oc1ccc(Cl)cc1)C(=O)O | label 0 |
| C/C(=C\C(=O)OCCCCCCCCC(=O)O)C[C@@H]1OC[C@H](C[C@@H]2O[C@H]2[C@@H](C)[C@H](C)O)[C@@H](O)[C@H]1O | label 0 |
| CCN1CCN(c2cc3c(cc2F)c(=O)c(C(=O)O)cn3C2CC2)CC1 | label 0 |
| COc1cc([C@@H]2c3cc4c(cc3C(O[C@@H]3O[C@@H]5CO[C@@H](c6cccs6)OC5[C@H](O)[C@H]3O)C3COC(=O)[C@@H]32)OCO4)cc(OC)c1O (stereo not given in full) | label 0 |
| O=c1cc(-c2ccc(O)cc2)oc2ccc(O)cc12 | label 0 |

IN: Recorded test call requested for O=C1c2c(O)ccc(O)c2C(=O)c2c(NCCNCCO)ccc(NCCNCCO)c21
OUT: label 1

IN: // query: CN(N=O)C(=O)N[C@@H]1[C@@H](O)[C@H](O)[C@@H](CO)O[C@@H]1O
OUT: label 0

---

This section presents compounds with their documented normalized growth values.
assayNotes: chemical genetic growth profiling, strain panel (AID 1159580)
conditionDescription: S. cerevisiae deletion strains, growth OD, locus YBR009C, strain hhf1, active compounds read low
The campaign covered roughly 5,500 compounds. About 2,000 (36%) were called active. Not shown: some 18% with an inconclusive outcome. The list shows a part of the results.
The reply should be a number, written without any unit.

IN: Consider the compound shown here: Nc1ccc(C(=O)O)c(O)c1 What is its recorded normalized growth?
OUT: 1.02

IN: Would you kindly repeat that for CCC(CCC(C)[C@H]1CCC2C3CC=C4C[C@@H](O)CC[C@]4(C)C3CC[C@@]21C)C(C)C (stereo not given in full) ?
OUT: 1.02

IN: What would you report for CC(=O)Nc1cccc(O)c1 ?
OUT: 0.984

---

assayNotes: chemical genetic growth profiling, strain panel (AID 1159580);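 further: tested at 20 µM; growth read once vehicle control cultures reached saturation at 30 °C; 1 = growth at the plate median or of vehicle wells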
conditionDescription: S. cerevisiae deletion strains, growth OD, locus YMR231W, strain pep5
The campaign covered roughly 5,500 compounds. About 2,000 (36%) were called active. Another 18% or so got no clear call; they are omitted. Rule as the data show it: active = normalized growth mostly below about 0.91 (no sharp cut-off); inconclusive = no clear call, values can overlap the other calls; inactive = mostly above about 0.92. Some of the results follow.
Answer with one of the outcomes given here: label 1 (active), label 0 (inactive)

Solved entries (count: 5):
| compound | classLabel |
| --- | --- |
| Nc1ccc(C(=O)Oc2ccccc2)c(O)c1 | label 0 |
| CC1(C)O[C@@H]2CC3C4C[C@H](F)C5=CC(=O)C=CC5(C)C4C(O)CC3(C)[C@]2(C(=O)CO)O1 (some centres not stated) | label 0 |
| CN1CCOC(c2ccccc2)c2ccccc2C1 (configuration not stated) | label 0 |
| CCOC(=O)C1C(C=C(C)C)C1(C)C (configuration not stated) | label 0 |
| COc1ccc(-c2cc(=O)c3c(O)c(OC)c(OC)c(OC)c3o2)cc1 | label 0 |

IN: Please share the test call associated with CN1CCN2c3ccccc3Cc3ccccc3C2C1 (configuration not stated) .
OUT: label 0

IN: Then CCCN1C[C@H](CSC)C[C@@H]2c3cccc4[nH]cc(c34)C[C@H]21 ?
OUT: label 0

IN: // query: Nc1ccc(C(=O)O)c(O)c1
OUT: label 0

IN: Record: CC(=O)N(O)CCCCCNC(=O)CCC(=O)N(O)CCCCCNC(=O)CCC(=O)N(O)CCCCCN
OUT: label 0

IN: Now consider CC(=O)Nc1ccc(OC(=O)c2ccccc2O)cc1 .
OUT: label 0

IN: Likewise for O=C1c2c(O)ccc(O)c2C(=O)c2c(NCCNCCO)ccc(NCCNCCO)c21 ?
OUT: label 1

IN: Further, for CC(=O)Nc1ccc(O)cc1 ?
OUT: label 0

---

assayNotes: chemical genetic growth profiling, strain panel (AID 1159580);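 further: tested at 20 µM; growth read once vehicle control cultures reached saturation at 30 °C; 1 = growth at the plate median or of vehicle wells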
conditionDescription: S. cerevisiae deletion strains, growth OD, locus YDL192W, strain arf1, active compounds read low
Hit rate of the full screen: of about 5,500 compounds, about 2,000 (36%) were called active. About 18% were inconclusive and are not listed. Some of the results follow.
Reported normalized growth by item:
Respond numerically, and do not add a unit to the figure.

Recorded normalized growth, per entry:
| compound | normalized growth |
| --- | --- |
| O=C(O)c1nc2cc(Cl)c(Cl)cc2[nH]c1=O | 0.993 |
| NC(=O)CC[C@@H](N)C(=O)O | 1.03 |
| CC(C)(Oc1ccc(Cl)cc1)C(=O)O | 0.981 |
| COc1cccc(-c2cc(=O)c3ccc(OC)cc3o2)c1 | 1.04 |

IN: What value of normalized growth has been reported for the following compound? CC1(C)O[C@@H]2CC3C4C[C@H](F)C5=CC(=O)C=CC5(C)C4C(O)CC3(C)[C@]2(C(=O)CO)O1 (some centres undefined)
OUT: 1.01

IN: Field entry: CC(=O)O[C@@H]1CC2C(C)(C)[C@H](O)C[C@H](O)[C@]2(C)C2CC[C@@]3(C)[C@H](c4ccoc4)OC(=O)[C@H]4O[C@]43[C@@]21C (some centres undefined)
OUT: 0.988

IN: Next: C=C1C(N)CC2CC1C2(C)C (centres undefined)
OUT: 0.996

IN: Here is the next compound: COc1cc([C@@H]2c3cc4c(cc3C(O[C@@H]3O[C@@H]5CO[C@@H](c6cccs6)OC5[C@H](O)[C@H]3O)C3COC(=O)[C@@H]32)OCO4)cc(OC)c1O (some centres undefined)
OUT: 1.02

IN: Please give the result for CC(=O)O[C@@H]1CC2C(C)(C)CCC(=O)[C@]2(C)C2CC[C@@]3(C)[C@H](c4ccoc4)OC(=O)C4OC43[C@@]21C (some centres undefined) too.
OUT: 0.993

---

assayNotes: chemical genetic growth profiling, strain panel (AID 1159580);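 further: tested at 20 µM; growth read once vehicle control cultures reached saturation at 30 °C; 1 = growth at the plate median or of vehicle wells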
conditionDescription: S. cerevisiae deletion strains, growth OD, locus YLR418C, strain cdc73, active compounds read low
About 2,000 (36%) of roughly 5,500 compounds were called active. Not shown: some 18% with an inconclusive outcome. Some of the results follow.
hey, just use Yes if measured normalized growth is less than 0.9, otherwise No

Answered cases to consult:
| molecule | classLabel |
| --- | --- |
| COc1ccc(-c2cc(=O)c3c(OC)cccc3o2)cc1 | No |
| COc1ccc(-c2coc3cc(O)cc(O)c3c2=O)cc1 | Yes |
| COc1cc([C@@H]2c3cc4c(cc3[C@H](O)[C@H]3COC(=O)[C@@H]23)OCO4)cc(OC)c1OC | No |

IN: normalized growth strictly < 0.9 for this molecule? CC1NC(=O)NC1=O (stereo not drawn)
OUT: No

IN: Another molecule to look at: C=CCCCCCCCCCCCC(O)CC(O)CO (stereo not drawn) (tested in a mixture with another compound)
OUT: Yes

IN: Would you kindly repeat that for CCC1C2CC3C4N(C)c5ccccc5C45CC(C2C5OC(C)=O)N3C1OC(C)=O (stereo not drawn) ?
OUT: No

IN: Next molecule: COC(=O)C1=C(C)NC(C)=C(C(=O)OCCN(C)Cc2ccccc2)C1c1cccc([N+](=O)[O-])c1 (stereo not drawn)
OUT: No

IN: Input CC(=O)O[C@H]1C[C@@H](O)C(C)(C)C2C[C@@H](OC(C)=O)[C@]3(C)C(CC[C@@]4(C)[C@H](c5ccoc5)OC(=O)C5OC543)[C@]21C (stereo partly drawn)
OUT: No

IN: One more molecule: CC(=O)OC1CC2C(C)(C)CCCC2(C)C2CCC3(C)C(c4ccoc4)OC(=O)C4OC43C12C (stereo not drawn)
OUT: No

IN: Entry CN(C)CC/C=C1/c2ccccc2COc2ccccc21 please
OUT: No

IN: Try this molecule next: CN(C)CCC=C1c2ccccc2C=Cc2ccccc21
OUT: Yes

IN: What about CN(C)CCC=C1c2ccccc2CCc2ccccc21 ?
OUT: No

IN: C=C1C2CC[C@@]3(C)[C@H](c4ccoc4)OC(=O)C[C@]13O[C@H]1CC(=O)C(C)(C)[C@H](C(O)C(=O)OC)[C@@]21C (stereo partly drawn) ?
OUT: No

IN: And for O=c1c2ccccc2[se]n1-c1ccccc1 ?
OUT: Yes

IN: Further, for CC(C)Oc1ccc2c(=O)cc(-c3ccccc3)oc2c1 ?
OUT: Yes

IN: Let us now turn to CC(=O)O[C@@H]1CC2C(C)(C)CCC(=O)[C@]2(C)C2CC[C@@]3(C)[C@H](c4ccoc4)OC(=O)C4OC43[C@@]21C (stereo partly drawn)
OUT: No

IN: Same again, this time with CC(C)c1ccc2c(c1O)CC[C@H]1C3=C(CC[C@]21C)C(=O)OC3
OUT: Yes

IN: Queued: CC(=O)O[C@H]1C[C@H](O[C@H]2[C@@H](O)C[C@H](O[C@H]3[C@@H](O)C[C@H](O[C@H]4CC[C@@]5(C)C(CCC6C5C[C@@H](O)[C@]5(C)[C@@H](C7=CC(=O)OC7)CC[C@]65O)C4)O[C@@H]3C)O[C@@H]2C)O[C@H](C)[C@H]1O[C@@H]1O[C@H](CO)[C@@H](O)[C@H](O)[C@H]1O (stereo partly drawn)
OUT: No

IN: Same for O=C1CCc2cc(OCCCCc3nnnn3C3CCCCC3)ccc2N1
OUT: No

IN: Can you handle O=c1c2ccccc2oc2ccc(O)cc12 next?
OUT: Yes

The measurements presented in this section are drawn from PubChem BioAssay AID1159580.
